The origin of these recorded values is patent US20180355043A1.

Below, each entry is listed alongside its reported ECL signal.
# target-or-system: T1, DR4G92: Human HLA-DRA1*01:02/DRB1*04:01 ECD with collagen II peptide CII_257-273 (human)
# T1 construct: also called HLA-DR4 with CII_257-273
# experiment: MSD ECL; antigen coated; protocol of Example 3
Answer with a number only, understood to be in ECL.

Worked cases, answers included:
DR4B4 (antibody, V domains shown, also called Lym-1 re-engineered as IgG2sigma) VH: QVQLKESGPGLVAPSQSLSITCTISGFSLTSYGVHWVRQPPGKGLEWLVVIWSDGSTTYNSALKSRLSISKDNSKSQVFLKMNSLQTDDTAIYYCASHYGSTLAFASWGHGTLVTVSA VL: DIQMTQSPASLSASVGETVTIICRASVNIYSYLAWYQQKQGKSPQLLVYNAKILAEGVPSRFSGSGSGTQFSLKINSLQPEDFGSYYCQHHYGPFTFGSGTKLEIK = 131000
DR4B5 (antibody, V domains shown, also called apolizumab (1D10) re-engineered as IgG2sigma) VH: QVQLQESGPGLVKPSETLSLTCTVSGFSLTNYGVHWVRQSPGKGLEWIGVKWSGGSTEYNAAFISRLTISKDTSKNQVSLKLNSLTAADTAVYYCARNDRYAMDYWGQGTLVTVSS VL: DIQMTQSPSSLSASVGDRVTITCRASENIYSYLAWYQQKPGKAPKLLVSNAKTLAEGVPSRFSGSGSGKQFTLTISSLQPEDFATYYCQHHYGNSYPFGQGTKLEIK = 49000
DR4B6 (antibody, V domains shown, also called L243 re-engineered as IgG2sigma) VH: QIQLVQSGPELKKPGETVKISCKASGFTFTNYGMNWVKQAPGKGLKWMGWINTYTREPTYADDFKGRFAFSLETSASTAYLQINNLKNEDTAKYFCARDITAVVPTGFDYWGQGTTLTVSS VL: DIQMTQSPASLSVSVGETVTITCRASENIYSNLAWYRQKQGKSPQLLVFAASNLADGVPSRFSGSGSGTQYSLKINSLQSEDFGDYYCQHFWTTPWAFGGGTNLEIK = 608000

# query: ECL signal of entry DR4B127 (antibody, human IgG2, kappa, V domains shown, also called VH DR4H7 / VL PH9L3) VH: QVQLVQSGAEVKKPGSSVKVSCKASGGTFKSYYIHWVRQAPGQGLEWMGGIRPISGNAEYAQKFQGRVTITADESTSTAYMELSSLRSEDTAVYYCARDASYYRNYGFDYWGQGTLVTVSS VL: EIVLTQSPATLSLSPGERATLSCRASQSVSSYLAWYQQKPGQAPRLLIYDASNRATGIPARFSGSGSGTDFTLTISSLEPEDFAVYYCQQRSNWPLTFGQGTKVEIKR 1.21e+06

Bench note: what ECL signal did DR4B98 (antibody, human IgG2, kappa, V domains shown, also called VH DR4H50 / VL PH9L3) VH: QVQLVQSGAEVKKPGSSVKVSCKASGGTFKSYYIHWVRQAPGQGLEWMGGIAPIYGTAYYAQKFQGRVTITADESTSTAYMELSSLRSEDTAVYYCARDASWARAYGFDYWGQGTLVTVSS VL: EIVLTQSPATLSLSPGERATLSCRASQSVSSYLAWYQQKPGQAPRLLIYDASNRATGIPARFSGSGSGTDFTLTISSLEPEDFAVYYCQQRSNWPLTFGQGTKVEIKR show? 310000
